Tested on: SEM cells
protocol-summary: AUC of viability dose-response curve (% viability x log10 dose units); higher = less sensitive
test-parameters: RPMI 5 mM glucose + 10% dialyzed FBS; 48 h
Measured AUC of viability dose-response curve, listed per entry.
observation-type: AUC of viability dose-response curve

[
  {
    "input-smiles": "CCCCC[C@H](O)/C=C/[C@H]1[C@H](O)CC(=O)[C@@H]1CCCCCCC(=O)O",
    "result": 409
  },
  {
    "input-smiles": "NC[C@H]1O[C@H](O[C@H]2[C@H](O)[C@@H](O[C@H]3O[C@H](CO)[C@@H](O)[C@H](N)[C@H]3O)[C@H](N)C[C@@H]2N)[C@H](N)C[C@@H]1O",
    "result": 469
  },
  {
    "input-smiles": "NCCc1ccc(O)c(O)c1",
    "result": 449
  },
  {
    "input-smiles": "COc1cc2ncn(-c3cc(OCc4ccccc4C(F)(F)F)c(C(N)=O)s3)c2cc1OC",
    "result": 372
  }
]

* * *

Test system: P12-Ichikawa
protocol-summary: cell viability relative to DMSO control; higher = less cytotoxic
test-parameters: HPLM + 10% dialyzed FBS; 48 h; 5.12 µM

[
  {
    "compound": "O=C(NCc1ccccc1)c1csc(Nc2ccncn2)n1",
    "cell viability, %": 62.9
  },
  {
    "compound": "COc1cc2ncnc(Nc3cccc(Cl)c3)c2cc1OC",
    "cell viability, %": 46.1
  },
  {
    "compound": "Oc1c(Cl)cc(Cl)c2cccnc12",
    "cell viability, %": 109
  },
  {
    "compound": "CCOC(=O)O[C@]1(C(=O)OCCl)CC[C@H]2[C@@H]3CCC4=CC(=O)C=C[C@]4(C)[C@H]3[C@@H](O)C[C@@]21C",
    "cell viability, %": 86.1
  },
  {
    "compound": "CCCCc1nc2cc(/C=C/C(=O)NO)ccc2n1CCN(CC)CC",
    "cell viability, %": 3.65
  },
  {
    "compound": "N#Cc1ccc(NC(=O)Nc2ccccc2Br)c2nn[nH]c12",
    "cell viability, %": 125
  },
  {
    "compound": "C[N]1C=C(C=N1)C2=CC=C3N=CC\\4=C(N(C(=O)\\C=C4)C5=CC6=C(CCN6C(=O)C=C)C=C5)C3=C2",
    "cell viability, %": 79.9
  },
  {
    "compound": "Cc1nc(N)ncc1-c1nc(N2CCOCC2)c2sc(C(C)(C)O)cc2n1",
    "cell viability, %": 4.61
  },
  {
    "compound": "CC[C@H]1CN2CCc3cc(OC)c(OC)cc3[C@@H]2C[C@@H]1C[C@H]1NCCc2cc(OC)c(OC)cc21",
    "cell viability, %": 28.8
  },
  {
    "compound": "C1CN\\2C[C@@H](\\N=C2S1)C3=CC=CC=C3",
    "cell viability, %": 103
  },
  {
    "compound": "Nc1nc(N)c(N=O)c(OCC2CCCCC2)n1",
    "cell viability, %": 75.6
  },
  {
    "compound": "COC(=O)[C@H](c1ccccc1Cl)N1CCc2sccc2C1",
    "cell viability, %": 102
  },
  {
    "compound": "COC(=O)C/1=C(C)/N/C(=C(\\C1C2=CC(=CC=C2)[N+]([O-])=O)C(=O)OCCCN3CCC(CC3)(C4=CC=CC=C4)C5=CC=CC=C5)C (centres undefined)",
    "cell viability, %": 97.3
  },
  {
    "compound": "CC[C@@H]1C(=O)N(C)c2cnc(Nc3ccc(C(=O)NC4CCN(C)CC4)cc3OC)nc2N1C1CCCC1",
    "cell viability, %": 16.5
  },
  {
    "compound": "O=C(O)Cc1cccc(OCCCN(Cc2cccc(C(F)(F)F)c2Cl)CC(c2ccccc2)c2ccccc2)c1",
    "cell viability, %": 108
  },
  {
    "compound": "CC(C)[N+]1(C)C2CCC1CC(OC(=O)C(CO)c1ccccc1)C2.O.[Br-] (centres undefined)",
    "cell viability, %": 50
  },
  {
    "compound": "Cc1cnc(Nc2ccc(CN3CCOCC3)cc2)nc1Nc1cccc([S+](=O)([O-])NC(C)(C)C)c1",
    "cell viability, %": 9.27
  },
  {
    "compound": "Oc1ccc([C@@H]2Oc3ccc(O)cc3[C@@H]3CCC[C@@H]32)cc1",
    "cell viability, %": 87.4
  },
  {
    "compound": "CN(C)[C@@H](CCOc1cccc2ccccc12)c1ccccc1",
    "cell viability, %": 101
  }
]
